Molecular target: NAD-dependent protein deacetylase sirtuin-2 (Homo sapiens)
Sequence (Q8IXJ6 whole entry): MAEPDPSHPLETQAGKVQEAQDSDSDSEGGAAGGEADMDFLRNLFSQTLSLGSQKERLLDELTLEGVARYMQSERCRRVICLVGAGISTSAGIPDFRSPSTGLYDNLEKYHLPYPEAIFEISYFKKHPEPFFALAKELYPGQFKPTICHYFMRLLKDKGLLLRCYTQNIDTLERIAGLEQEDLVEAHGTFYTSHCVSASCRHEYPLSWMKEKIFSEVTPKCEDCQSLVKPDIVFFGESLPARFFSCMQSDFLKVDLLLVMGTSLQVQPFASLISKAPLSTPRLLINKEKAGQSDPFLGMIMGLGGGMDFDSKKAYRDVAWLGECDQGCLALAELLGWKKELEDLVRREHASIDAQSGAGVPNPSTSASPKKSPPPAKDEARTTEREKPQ
Assay: Inhibition of human recombinant Sirt2 using ZMAL as substrate after 4 hrs by fluorescent deacetylase assay
Details: read-out: IC50
pIC50: −log10 of the molar value.
We begin with a simple list: items and their reported pIC50.

# Chemical string, pIC50
measured = [
    ("C=CCN1C(=O)/C(=C/c2ccc(-c3cccc(Cl)c3Cl)o2)C(=O)NC1=S", 5.55),
    ("O=C1NC(=S)NC(=O)C1=Cc1ccc(-c2ccc(C(=O)OCc3cccc(Cl)c3)cc2)o1", 5.66),
    ("CCOc1ccc(C=C2C(=O)NC(=S)NC2=O)cc1CCc1ccccc1", 5.31),
    ("O=C1NC(=S)NC(=O)C1=Cc1ccc(-c2ccc(Cl)c(Cl)c2)o1", 5.82),
    ("O=C1NC(=S)NC(=O)C1=Cc1ccc(OCc2ccccc2)c(OCc2ccccc2)c1", 5.41),
    ("O=C1NC(=S)NC(=O)C1=Cc1ccc(Sc2ccccc2)o1", 5.46),
    ("CC(=O)c1ccc(-c2ccc(C=C3C(=O)NC(=S)NC3=O)o2)cc1", 5.26),
    ("COC(=O)c1ccc(-c2ccc(C=C3C(=O)NC(=S)NC3=O)o2)cc1", 5.24),
]
